System: M14 melanoma
Assay: NCI-60 one-dose screen, 48 h (100 = growth as untreated, 0 = no growth, -100 = all killed)
Settings: 10 µM unless noted
Compounds without any hit were thinned out: in the full panel of roughly 83,000, 20% have a hit.
metric: growth (%)
Give bare numbers, in %.

Study these solved cases before continuing.
>  <compound>
O=C1c2ccccc2C(=O)c2sc(Nc3ccc(Cl)cc3)nc21

>  <growth, %>
-2.34

$$$$
>  <compound>
NC(=O)/C=C/C(=O)c1c(Cl)cccc1Cl

>  <growth, %>
-96.5

$$$$
>  <compound>
O=C(/C=C\c1ccccc1)N1c2ccccc2CC1c1c[nH]c2ccccc12 (stereo unspecified)

>  <growth, %>
71.6

$$$$
>  <compound>
O=C1c2ccccc2C(=O)N1c1ccccc1

>  <growth, %>
106

$$$$
>  <compound>
CC1OC2CC(=O)OC2C2=C1C(=O)c1c(O)cccc1C2=O (stereo unspecified)

>  <growth, %>
-87.7

$$$$

Now for a further compound.
Exercise: Query: growth; subject: "NC(=S)N/N=C\c1nccc2c(C(F)(F)C(F)(F)C(F)(F)F)cccc12"
Solution: -19.2

---

Tested on: MDA-MB-231 breast
Assay: NCI-60 one-dose screen, 48 h (100 = growth as untreated, 0 = no growth, -100 = all killed)
Settings: 10 µM unless noted
This is part of a sample that, as a whole, favours compounds with a hit. Of some 83,000 tested, about 20% had one in any assay. Where a SMILES comes first, the peptide text is derived from it. The star is where a group is joined. Trt = c1ccc(C(c2ccccc2)(c2ccccc2)*)cc1; Cbz = O=C(OCc1ccccc1)*
Would you mind telling me the reported growth of each entry?
One number for each entry, in %.

>  <molecule>
CNc1ccc2c(c1)c1ccccc1n2C

>  <units of measure>
%

>  <measured result>
98.5

$$$$
>  <molecule>
CN(Cc1cnc2nc(N)nc(N)c2n1)c1ccc(C(=O)NC(CCC(=O)O)C(=O)O)cc1 (stereo not given)

>  <units of measure>
%

>  <measured result>
82.8

$$$$
>  <molecule>
CN(C)C(=O)SC1=C(c2c(Cl)cccc2Cl)C(=O)c2ccccc21

>  <units of measure>
%

>  <measured result>
80.6

$$$$
>  <molecule>
COC(=O)C(CSC(c1ccccc1)(c1ccccc1)c1ccccc1)NC(=O)C(CC(N)=O)NC(=O)OCc1ccccc1 (stereo not drawn) (Cbz-Asn-Cys(Trt)-OMe; configuration not given here)

>  <units of measure>
%

>  <measured result>
12.5

$$$$

Please look at the following molecule next.
Exercise: GET /values?readout=growth&system=MDA-MB-231 breast&item= "S=C(N/N=C/c1ccccn1)Nc1ccccn1"
Solution: 42.4

---

Tested on: DU-145 prostate
Assay: NCI-60 one-dose screen, 48 h (100 = growth as untreated, 0 = no growth, -100 = all killed)
Settings: 10 µM unless noted
Compounds without any hit were thinned out: in the full panel of roughly 83,000, 20% have a hit. Calls of active or inactive are those of the source. Rule for the calls: active = growth percent below 10; inactive = the rest.
metric: growth

See these solved cases before continuing.
>  <molecule>
CCOC(=O)/C=C/c1ccc([N+](=O)[O-])o1

>  <growth>
69.2% (inactive)

$$$$
>  <molecule>
CCCCCC(CCCCC)C(=O)O

>  <growth>
119% (inactive)

$$$$
>  <molecule>
Nc1nc(N)c2c(ccc3c2ccn3Cc2cccc([N+](=O)[O-])c2)n1

>  <growth>
-97% (active)

$$$$
>  <molecule>
S=C(NCCNC(=S)[S][Sn]([c]1ccccc1)([c]1ccccc1)[c]1ccccc1)[S][Sn]([c]1ccccc1)([c]1ccccc1)[c]1ccccc1

>  <growth>
-96.1% (active)

$$$$
>  <molecule>
CC(C)(C)CC(C)(C)c1ccc(OCCSC(=N)N)cc1

>  <growth>
72.4% (inactive)

$$$$
>  <molecule>
CCN(CC)CC(C)(C)C(=O)/C=C/c1ccc(Cl)c(Cl)c1

>  <growth>
-61.6% (active)

$$$$

Below are 2 molecules. Give each one its growth.
1. CCC(c1cccc(O)c1)C(CC)c1cccc(O)c1 (centres undefined)
2. O=C(Nc1cccc(Br)c1)Oc1ccc(Cl)c2cccnc12

Solution:
1. 86% (inactive)
2. 42.2% [100 µM] (inactive)
